# pKi per entry
Study system: DAT (Homo sapiens, UniProt Q01959)
Sequence (Q01959 whole entry, species assumed): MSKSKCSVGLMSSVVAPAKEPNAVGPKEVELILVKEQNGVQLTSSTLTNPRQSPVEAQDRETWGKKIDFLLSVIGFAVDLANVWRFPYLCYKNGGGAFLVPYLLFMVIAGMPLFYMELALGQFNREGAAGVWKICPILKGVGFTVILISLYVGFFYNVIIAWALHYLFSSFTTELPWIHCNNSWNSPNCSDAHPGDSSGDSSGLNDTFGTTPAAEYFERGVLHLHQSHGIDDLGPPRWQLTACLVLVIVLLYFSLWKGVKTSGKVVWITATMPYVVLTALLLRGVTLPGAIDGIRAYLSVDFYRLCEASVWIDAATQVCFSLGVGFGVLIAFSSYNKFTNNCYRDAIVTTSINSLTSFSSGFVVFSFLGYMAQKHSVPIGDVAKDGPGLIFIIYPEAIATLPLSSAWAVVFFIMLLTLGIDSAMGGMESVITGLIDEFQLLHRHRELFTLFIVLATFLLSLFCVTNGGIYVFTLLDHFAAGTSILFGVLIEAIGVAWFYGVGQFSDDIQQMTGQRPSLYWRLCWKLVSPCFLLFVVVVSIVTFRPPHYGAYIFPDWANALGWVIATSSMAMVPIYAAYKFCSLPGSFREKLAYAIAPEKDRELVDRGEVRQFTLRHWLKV
Protocol: DAT radioligand binding with [3H]WIN35,428
As a rule, pKi stands for the negative log10 of the concentration, concentration in M.

Compound	pKi
O=C1CCCC[C@@]1(c1ccccc1)N1CCC1 [Compound 84S]	4.04

DAT (Homo sapiens, UniProt Q01959) assay, compound O=C1CCCC[C@@]1(c1ccccc1)N1CCCCC1 [Compound 26S] , recorded pKi = 4.10

* * *

# log10(half-life at 1 μM) per entry
Protocol: RLM stability (Low Activity)
Assay type: in vitro ADME, Sprague Dawley rats
Particulars: male, Sprague Dawley, rat, liver microsomes, pH 7.4, Condition 1 (Low Activity), 0.50 mg protein/mL
Hey, these are logged values: log10 of half-life at 1 μM, min being the unit before logging.

Below: 5 molecules and their reported log10(half-life at 1 μM).
Molecule	Recorded result
CNC1(c2ccc(C)cc2)CCCCC1=O (racemic) [Compound 119rac]	0.52
Cc1cccc(C2(N)CCCCC2=O)c1 (racemic) [Compound 118rac, 2-amino-2-(m-tolyl)cyclohexan-1-one]	0.86
CC1CCN1C1(c2ccccc2)CCCCC1=O (centres unmarked) [Compound 128mix]	1.44
Cc1ccccc1[C@]1(N)CCCCC1=O [Compound 114R, (R)-2-amino-2-(o-tolyl)cyclohexan-1-one]	1.44
COCCN[C@]1(c2ccccc2)CCCCC1=O [Compound 29S]	1.50

Item: CC1CN(C2(c3ccccc3)CCCCC2=O)C1 (racemic) [Compound 129rac] | log10(half-life at 1 μM): 1.38

Item: Cc1ccc(C2(N)CCCCC2=O)cc1 (racemic) [Compound 120rac, 2-amino-2-(p-tolyl)cyclohexan-1-one] | log10(half-life at 1 μM): 0.56

* * *

Protocol: Oral bioavailability in rats, Method B
Format: in vivo
Particulars: male, rat; plasma, Sprague Dawley rats, 10 mg/kg po, Method B; read-out: t1/2 (po)
Binary classification by half-life, with 50 min as an inclusive lower bound for Criterion met; all other cases are Criterion not met.

Examples with answers:
Compound	Label value
O=C1CCCC[C@]1(c1ccccc1)N1CCC1 [Compound 84R]	Criterion not met
[2H]C([2H])([2H])N[C@@]1(c2ccccc2)CCCCC1=O [Compound 88R]	Criterion not met
COCCNC1(c2ccccc2)CCCCC1=O (racemic) [Compound 29rac]	Criterion met
O=C1CCCC[C@@]1(c1ccccc1)N1CCC1 [Compound 84S]	Criterion not met
CN[C@@]1(c2ccccc2)CCCCC1=O [Compound 14R]	Criterion not met

# ---- query compound ----
Hello, I need to know if O=C1CCCCC1(c1ccccc1)N1CCCC1 (racemic) [Compound 27rac] has measured half-life not below 50 min. Thanks! Criterion met

* * *

Protocol: Oral bioavailability in mice, Method A
Type: in vivo
Particulars: male, mouse, brain, CD-1 mice, 10 mg/kg iv, read-out: t1/2 (iv)
Counter-ions that a name gives are not always drawn.
Property name: half-life (min)
Report only the number, with the unit min understood.

Compound	Unit abbreviation	half-life
CN[C@@]1(c2ccccc2)CCCCC1=O [Compound 14R]	min	716
CNC1(c2ccccc2OC)CCCCC1=O (racemic)	min	19.9
CN[C@]1(c2ccccc2)CCCCC1=O [Compound 14S]	min	127
CNC1(c2ccccc2)CCCCC1=O (racemic) [Compound 14rac, hydrochloride]	min	28.1
CCNC1(c2cccc(OC)c2)CCCCC1=O (racemic)	min	16.1

Here's the next entry for you.
Item: CNC1(c2ccccc2F)CCCCC1=O (racemic) | half-life: 16.1

* * *

# pKi per entry
Study system: MK-801 binding site of the N-methyl-D-aspartate receptor (NMDAR)
Protocol: NMDAR radioligand binding with [3H]MK-801, Method B
Parameters: species or system Sprague Dawley rat
Particulars: MK-801 site, Method B, male Sprague Dawley rat cortex, 5.0 nM [3H]MK-801; read-out: NMDAR Ki ± SEM
Experimental: Radioligand Binding—Method B. Affinity of the test compounds for NMDAR was determined in radioligand binding experiments with [^3H]MK-801 by WuXi AppTec (Hong Kong) Limited, under the conditions described in Table 13.
As a rule, pKi stands for the negative log10 of the concentration, concentration in M.

Below: 3 compounds and their reported pKi.
Compound	Recorded result
COCCN[C@]1(c2ccccc2)CCCCC1=O [Compound 29S]	5.09
O=C1CCCC[C@@]1(c1ccccc1)N1CCCCC1 [Compound 26S]	6.28
Cc1cccc(C2(N)CCCCC2=O)c1 (racemic)	5.35

Item: CC1CN(C2(c3ccccc3)CCCCC2=O)C1 (racemic) | pKi: 6.28

Item: CC1CCN1C1(c2ccccc2)CCCCC1=O (centres unmarked) [Compound 128mix] | pKi: 5.72

* * *

# half-life at 1 μM per entry
Protocol: HLM stability (Low Activity, Alternative Method)
Type: in vitro ADME
Particulars: both sexes, human, liver microsomes, pH 7.4, Condition 1 column, values marked *: Low Activity, 0.50 mg protein/mL

Compound	Recorded result
O=C1CCCC[C@]1(c1ccccc1)N1CCOCC1 [Compound 31R]	0.762 h
Cc1cccc(C2(N)CCCCC2=O)c1 (racemic)	> 2.42 h

Item: O=C1CCCC[C@]1(c1ccccc1)N1CCCC1 [Compound 27R] | half-life at 1 μM: > 2.42 h

Item: CCN(CC)[C@]1(c2ccccc2)CCCCC1=O [Compound 25S] | half-life at 1 μM: 0.7 h

Item: CNC1(c2ccc(F)cc2)CCCCC1=O (racemic) | half-life at 1 μM: > 2.42 h

Item: COCCN[C@]1(c2ccccc2)CCCCC1=O [Compound 29S] | half-life at 1 μM: > 2.42 h

* * *

Study system: norepinephrine transporter (NET) (Homo sapiens, UniProt P23975)
Construct: expressed in transfected cells; host or cells: HEK293
Sequence (P23975 whole entry, species assumed): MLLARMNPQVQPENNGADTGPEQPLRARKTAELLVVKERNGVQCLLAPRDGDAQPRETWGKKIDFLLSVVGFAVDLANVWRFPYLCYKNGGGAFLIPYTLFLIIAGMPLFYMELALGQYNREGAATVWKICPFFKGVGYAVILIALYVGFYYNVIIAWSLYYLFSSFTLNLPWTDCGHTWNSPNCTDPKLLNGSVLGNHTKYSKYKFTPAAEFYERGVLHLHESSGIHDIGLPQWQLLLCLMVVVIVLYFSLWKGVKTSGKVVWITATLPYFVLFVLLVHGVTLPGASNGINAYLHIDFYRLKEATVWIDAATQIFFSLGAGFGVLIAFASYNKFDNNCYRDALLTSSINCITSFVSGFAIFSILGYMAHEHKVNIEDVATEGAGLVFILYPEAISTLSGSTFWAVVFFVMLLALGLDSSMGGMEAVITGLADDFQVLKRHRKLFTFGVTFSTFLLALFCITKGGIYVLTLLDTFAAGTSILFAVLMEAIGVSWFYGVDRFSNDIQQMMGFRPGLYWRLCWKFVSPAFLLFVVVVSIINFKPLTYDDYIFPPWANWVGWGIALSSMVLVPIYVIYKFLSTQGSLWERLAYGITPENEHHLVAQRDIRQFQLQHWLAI
Protocol: Fluorescent substrate uptake inhibition, NET
Assay type: cell-based
Particulars: 10 μM, HEK293 cells expressing NET
# inhibition at 10 µM per entry
Report only the number, with the unit % understood.

Compound	inhibition at 10 µM [%]
CN[C@@]1(c2ccccc2)CCCCC1=O [Compound 14R]	1.7
CC(C)N[C@]1(c2ccccc2)CCCCC1=O [Compound 28S]	48.7

Item: O=C1CCCC[C@@]1(c1ccccc1)N1CCOCC1 [Compound 31S] | inhibition at 10 µM: 1.6

Item: CC(C)N[C@@]1(c2ccccc2)CCCCC1=O [Compound 28R] | inhibition at 10 µM: 11.4

* * *

Study system: serotonin transporter (SERT) (Homo sapiens)
Construct: expressed in transfected cells; host or cells: HEK293
Sequence (P31645 whole entry, species assumed): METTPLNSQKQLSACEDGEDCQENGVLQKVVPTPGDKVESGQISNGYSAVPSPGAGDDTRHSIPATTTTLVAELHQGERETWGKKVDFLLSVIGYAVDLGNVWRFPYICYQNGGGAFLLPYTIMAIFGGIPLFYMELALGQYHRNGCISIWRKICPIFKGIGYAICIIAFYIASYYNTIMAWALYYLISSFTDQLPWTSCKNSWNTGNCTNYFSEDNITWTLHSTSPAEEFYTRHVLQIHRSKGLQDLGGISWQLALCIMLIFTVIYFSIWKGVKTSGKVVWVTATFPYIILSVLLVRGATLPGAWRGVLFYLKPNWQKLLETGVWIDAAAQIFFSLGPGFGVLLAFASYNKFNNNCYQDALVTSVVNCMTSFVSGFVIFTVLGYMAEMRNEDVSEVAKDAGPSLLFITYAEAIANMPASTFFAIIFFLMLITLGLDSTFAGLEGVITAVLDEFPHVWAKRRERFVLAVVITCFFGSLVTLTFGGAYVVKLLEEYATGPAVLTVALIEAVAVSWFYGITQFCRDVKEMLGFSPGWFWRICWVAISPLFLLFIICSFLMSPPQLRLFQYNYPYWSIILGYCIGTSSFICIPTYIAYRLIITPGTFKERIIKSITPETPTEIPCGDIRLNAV
Protocol: Fluorescent substrate uptake inhibition, SERT
Type: cell-based
Particulars: 10 μM, HEK293 cells expressing SERT
# inhibition at 10 µM per entry
Report only the number, with the unit % understood.

Below: 5 compounds and their reported inhibition at 10 µM.
Compound	Unit abbreviation	Recorded result
CNC1(c2ccc(F)cc2)CCCCC1=O (racemic) [Compound 18rac]	%	25.2
Cc1ccccc1[C@]1(N)CCCCC1=O [Compound 114R, (R)-2-amino-2-(o-tolyl)cyclohexan-1-one]	%	23.4
O=C1CCCC[C@@]1(c1ccccc1)N1CCCCC1 [Compound 26S]	%	43
CN[C@@]1(c2cccc(F)c2)CCCCC1=O [Compound 19R]	%	20.9
O=C1CCCC[C@]1(c1ccccc1)N1CCOCC1 [Compound 31R]	%	-1.2

Item: Cc1ccc(C2(N)CCCCC2=O)cc1 (racemic) [Compound 120rac, 2-amino-2-(p-tolyl)cyclohexan-1-one] | inhibition at 10 µM: 27.5

Item: NC1(c2ccc(F)cc2)CCCCC1=O (racemic) [Compound 117rac] | inhibition at 10 µM: -0.91

Item: CCN(CC)[C@]1(c2ccccc2)CCCCC1=O [Compound 25S] | inhibition at 10 µM: 45.6

* * *

Protocol: Oral bioavailability in rats, Method B
Format: in vivo
Particulars: plasma, Sprague Dawley rats, 10 mg/kg, Method B
Binary classification by F, with 10% as an inclusive lower bound for met; all other cases are not met.

Hello, I need to know if [2H]C([2H])([2H])N[C@@]1(c2ccccc2)CCCCC1=O [Compound 88R] has measured F not below 10%. Thanks! met

Hello, I need to know if O=C1CCCCC1(c1ccccc1)N1CCCC1 (racemic) has measured F not below 10%. Thanks! met

Hello, I need to know if O=C1CCCC[C@]1(c1ccccc1)N1CCC1 [Compound 84R] has measured F not below 10%. Thanks! not met

Hello, I need to know if CN[C@@]1(c2ccccc2)CCCCC1=O [Compound 14R] has measured F not below 10%. Thanks! met

Hello, I need to know if O=C1CCCC[C@@]1(c1ccccc1)N1CCC1 [Compound 84S] has measured F not below 10%. Thanks! met

Hello, I need to know if COCCNC1(c2ccccc2)CCCCC1=O (racemic) has measured F not below 10%. Thanks! met

* * *

# F per entry
Protocol: Oral bioavailability in mice, Method A
Assay type: in vivo
Particulars: calculated based on brain exposure, CD-1 mice, 10 mg/kg
Counter-ions that a name gives are not always drawn.
State the result as a value with its unit after it.

Compound	F
CNC1(c2ccccc2F)CCCCC1=O (racemic) [Compound 35rac]	18%
CN[C@]1(c2ccccc2)CCCCC1=O [Compound 14S]	33%
CCNC1(c2cccc(OC)c2)CCCCC1=O (racemic) [Compound 2rac]	4%
CN[C@@]1(c2ccccc2)CCCCC1=O [Compound 14R]	35%
CNC1(c2ccccc2)CCCCC1=O (racemic) [Compound 14rac, hydrochloride]	42%
CNC1(c2ccccc2OC)CCCCC1=O (racemic) [Compound 4rac]	46%

Item: CNC1(c2ccccc2Cl)CCCCC1=O (racemic) [rac-ketamine, racemic ketamine, reference compound] | F: 6.2%
